Reported Mean relative activity values are given for each entry in this list.
- System: K562 CRISPRi cells
- assay comment: Constant region variant library pooled growth screen, K562
- Format: cell-based, human
- condition parameters: sgRNA constant region variants; activity relative to the original, un-modified constant region cr995
- Text: We calculated relative activities for each targeting sequence:constant region pair by normalizing its phenotype to that of the targeting sequence paired with the unmodified constant region, identifying 409 constant region variants that on average conferred intermediate activity (0.1-0.9, FIG. 5B). Ten variants selected for individual evaluation also mediated intermediate levels of mRNA knockdown (FIG. 6B). […]
Form: value (number only, do not type unit).

Value of Mean relative activity reported for the molecule cr202 (nucleic acid, listed as DNA, chemistry not fully specified) guide: GTTTAAGAGCTAAGCTGGAAACAGCATAGCAACTTTAAATAAGGCTAGTCCGTTATCAACTTGAAAAAGTGACACCGAGTCGGTGTT is 0.03423

Next up:
molecule cr598 (nucleic acid, listed as DNA, chemistry not fully specified) guide: GTTTAAGAGCTAAGCTGGAAACAGCATAGCAAGCTTAAATAAGGCTAGTCCGTTATCAACTGGAAACAGTGGCACCGAGTCGGTGCT , Mean relative activity observed: 0.5934

The reported measurements were obtained from patent US20220259593A1.
